Values from ChEMBL document CHEMBL1201861

System: EW-24;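 further: human EW-24 cancer cell line, growth inhibition read out via a cell viability assay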
Protocol text: cells
Type: functional, cell-based
Experimental conditions: Homo sapiens
Description: SANGER: Inhibition of human EW-24 cell growth in a cell viability assay.
Reported metric: IC50

- Molecule: "CN(Cc1cnc2nc(N)nc(N)c2n1)c1ccc(C(=O)N[C@@H](CCC(=O)O)C(=O)O)cc1 [METHOTREXATE]"
  Experimental target: "EW-24"
  Result: "> 200 nM"
- Molecule: "CC1=C2C[C@H]3[C@@H](CC=C4C[C@@H](O)CC[C@@]43C)[C@@H]2CC[C@]12O[C@@H]1C[C@H](C)CN[C@H]1[C@H]2C"
  Experimental target: "EW-24"
  Result: "> 16000 nM"

Data request: Answer with the recorded IC50 for the molecule listed here: Nc1ccn([C@@H]2O[C@H](CO)[C@@H](O)[C@@H]2O)c(=O)n1
Data returned: 794 nM

Data request: Answer with the recorded IC50 for the molecule listed here: COc1cc([C@@H]2c3cc4c(cc3[C@@H](O[C@@H]3O[C@@H]5CO[C@@H](C)O[C@H]5[C@H](O)[C@H]3O)[C@H]3COC(=O)[C@H]23)OCO4)cc(OC)c1O [ETOPOSIDE]
Data returned: > 16000 nM

Data request: Answer with the recorded IC50 for the molecule listed here: Cc1cnc(-c2cnc(NCCNc3ccc(C#N)cn3)nc2-c2ccc(Cl)cc2Cl)[nH]1
Data returned: > 2560 nM

----------
Each entry below carries its recorded pIC50.
Test system: Capan-2
Protocol text: cells
Assay type: functional, cell-based, Homo sapiens
Experimental conditions: Homo sapiens, Capan-2
Description: SANGER: Inhibition of human Capan-2 cell growth in a cell viability assay.
Give only the number. pIC50 is defined as minus log10 of concentration in molar units.

- Compound structure string: "CCC1=C[C@@H]2CN(C1)Cc1c([nH]c3ccccc13)[C@@](C(=O)OC)(c1cc3c(cc1OC)N(C)[C@H]1[C@@](O)(C(=O)OC)[C@H](OC(C)=O)[C@]4(CC)C=CCN5CC[C@]31[C@@H]54)C2"
  pIC50: 7.52

Data request: # assay system Capan-2: give pIC50 of Cn1cncc1[C@@](N)(c1ccc(Cl)cc1)c1ccc2c(c1)c(-c1cccc(Cl)c1)cc(=O)n2C;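 further: Capan-2 cell growth inhibition, read out with a viability assay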
Data returned: 4.97

----------
System: M14
Protocol text: cells
Assay type: functional, cell-based, Homo sapiens
Experimental conditions: m14
Description: SANGER: Inhibition of human M14 cell growth in a cell viability assay.
pIC50: −log10 of the molar value.
Reported metric: pIC50

Data request: # assay system M14: give pIC50 of Cc1cc([C@@H](C)Nc2ccccc2C(=O)O)c2nc(N3CCOCC3)cc(=O)n2c1 [AZD-6482];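 further: growth inhibition of M14 cells, read out with a cell viability assay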
Data returned: < 5.29

----------
Tested on: CFPAC-1
Protocol text: cells
Format: functional, cell-based
Experimental conditions: Homo sapiens
Description: SANGER: Inhibition of human CFPAC-1 cell growth in a cell viability assay.
Reported metric: IC50

Examples with answers:
- Compound structure string: "CN(C)C/C=C/C(=O)Nc1cc2c(Nc3ccc(F)c(Cl)c3)ncnc2cc1O[C@H]1CCOC1"
  Result: "> 500 nM"
- Compound structure string: "O=c1cc(-c2cccc3c2Sc2ccccc2S3)oc(N2CCOCC2)c1"
  Result: "> 10000 nM"
- Compound structure string: "COc1ccc(-c2ccc3c(N4CCOC[C@@H]4C)nc(N4CCOC[C@@H]4C)nc3n2)cc1CO"
  Result: "> 2000 nM"
- Compound structure string: "CC(=O)O[C@@H]1[C@@H](OC(C)=O)[C@@H](O)[C@H](Oc2c(-c3ccc(O)cc3)oc3cc(O)cc(O)c3c2=O)O[C@H]1C"
  Result: "> 10000 nM"

// next item, IC50 requested
Data request: # assay system CFPAC-1: give IC50 of Nc1ccn([C@@H]2O[C@H](CO)[C@@H](O)[C@@H]2O)c(=O)n1;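 further: cell viability readout used to gauge suppression of CFPAC-1 cell proliferation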
Data returned: 1060 nM

----------
System: NCI-H1581
Protocol text: cells
Format: functional, cell-based, Homo sapiens
Experimental conditions: Homo sapiens, NCI-H1581
Description: SANGER: Inhibition of human NCI-H1581 cell growth in a cell viability assay.
pIC50: −log10 of the molar value.
Reported metric: pIC50

Examples with answers:
- Compound: "Cc1ccc(Nc2nccc(N(C)c3ccc4c(C)n(C)nc4c3)n2)cc1S(N)(=O)=O [PAZOPANIB]"
  pIC50: "< 5.10"
- Compound: "CCOc1nc(NC(=O)Cc2cc(OC)ccc2OC)cc(N)c1C#N"
  pIC50: "< 5.00"
- Compound: "O=C(NOCC1CC1)c1ccc(F)c(F)c1Nc1ccc(I)cc1Cl [CI-1040]"
  pIC50: 5.08

Data request: # assay system NCI-H1581: give pIC50 of CO[C@H]1C[C@@H]2CC[C@@H](C)[C@@](O)(O2)C(=O)C(=O)N2CCCC[C@H]2C(=O)O[C@H]([C@H](C)C[C@@H]2CC[C@@H](O)[C@H](OC)C2)CC(=O)[C@H](C)/C=C(\C)[C@@H](O)[C@@H](OC)C(=O)[C@H](C)C[C@H](C)/C=C/C=C/C=C/1C [SIROLIMUS]
Data returned: < 7.00

Data request: # assay system NCI-H1581: give pIC50 of O=C(/C=C/c1ccccc1)NC(NC(=S)Nc1cccc2cccnc12)C(Cl)(Cl)Cl (stereo unspecified) [SALUBRINAL]
Data returned: < 4.80

Data request: # assay system NCI-H1581: give pIC50 of O=C(c1cc(Cc2n[nH]c(=O)c3ccccc23)ccc1F)N1CCN(C(=O)C2CC2)CC1 [OLAPARIB];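 further: cell growth inhibition read out by a viability assay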
Data returned: < 5.30

----------
Each entry below carries its recorded IC50.
Tested on: TE-9;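 further: cell growth inhibition, measured with a cell viability readout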
Protocol text: cells
Format: functional, cell-based, Homo sapiens
Experimental conditions: Homo sapiens, TE-9
Description: SANGER: Inhibition of human TE-9 cell growth in a cell viability assay.

- Molecule: "CCC(=O)N1CCN(c2ccc(-n3c(=O)ccc4cnc5ccc(-c6cnc7ccccc7c6)cc5c43)cc2C(F)(F)F)CC1"
  Experimental target: "TE-9"
  IC50: "290 nM"
- Molecule: "COc1ccc(C2=N[C@@H](c3ccc(Cl)cc3)[C@@H](c3ccc(Cl)cc3)N2C(=O)N2CCNC(=O)C2)c(OC(C)C)c1"
  Experimental target: "TE-9"
  IC50: "> 8000 nM"
- Molecule: "COc1cc([C@@H]2c3cc4c(cc3[C@@H](O[C@@H]3O[C@@H]5CO[C@@H](C)O[C@H]5[C@H](O)[C@H]3O)[C@H]3COC(=O)[C@H]23)OCO4)cc(OC)c1O [ETOPOSIDE]"
  Experimental target: "TE-9"
  IC50: "55.9 nM"
- Molecule: "CN(Cc1cnc2nc(N)nc(N)c2n1)c1ccc(C(=O)N[C@@H](CCC(=O)O)C(=O)O)cc1 [METHOTREXATE]"
  Experimental target: "TE-9"
  IC50: "> 200 nM"
- Molecule: "CCc1nc(N)nc(N)c1-c1ccc(Cl)cc1"
  Experimental target: "TE-9"
  IC50: "> 20000 nM"
- Molecule: "CCOc1nc(NC(=O)Cc2cc(OC)ccc2OC)cc(N)c1C#N"
  Experimental target: "TE-9"
  IC50: "> 10000 nM"

// next item, IC50 requested
Data request: Answer with the recorded IC50 for the molecule listed here: C=C1C(=O)O[C@@H]2C3O[C@]3(C)CC/C=C(\C)CC[C@@H]12 (some centres not stated)
Data returned: > 5000 nM

----------
Tested on: EW-16;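 further: growth inhibition of human EW-16 cells, read out as cell viability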
Protocol text: cells
Type: functional, cell-based, Homo sapiens
Experimental conditions: Homo sapiens, EW-16
Description: SANGER: Inhibition of human EW-16 cell growth in a cell viability assay.
Each entry below carries its recorded IC50.
Express the result in µM but write the number alone.

Examples with answers:
- Molecule: "COc1cc([C@@H]2c3cc4c(cc3[C@@H](O[C@@H]3O[C@@H]5CO[C@@H](C)O[C@H]5[C@H](O)[C@H]3O)[C@H]3COC(=O)[C@H]23)OCO4)cc(OC)c1O [ETOPOSIDE]"
  Experimental target: "EW-16"
  IC50 [µM]: 0.0215
- Molecule: "CCc1nc(N)nc(N)c1-c1ccc(Cl)cc1"
  Experimental target: "EW-16"
  IC50 [µM]: 15.8

Data request: Answer with the recorded IC50 for the molecule listed here: CN1CCN(CCOc2cc(OC3CCOCC3)c3c(Nc4c(Cl)ccc5c4OCO5)ncnc3c2)CC1
Data returned: 1.55

Data request: Answer with the recorded IC50 for the molecule listed here: COc1ccc(-c2ccc3c(N4CCOC[C@@H]4C)nc(N4CCOC[C@@H]4C)nc3n2)cc1CO
Data returned: 1.44

----------
Each entry below carries its recorded IC50.
System: SCC-4
Protocol text: cells
Type: functional, cell-based, Homo sapiens
Experimental conditions: Homo sapiens, SCC-4
Description: SANGER: Inhibition of human SCC-4 cell growth in a cell viability assay.

- Compound: "Cc1cnc(-c2cnc(NCCNc3ccc(C#N)cn3)nc2-c2ccc(Cl)cc2Cl)[nH]1"
  Experimental target: "SCC-4"
  Result: "> 2.56 µM"
- Compound: "Cn1cc(C2=C(c3ccc(Cl)cc3Cl)C(=O)NC2=O)c2ccccc21"
  Experimental target: "SCC-4"
  Result: "> 10 µM"
- Compound: "COc1cc(F)c(F)c(Nc2ccc(I)cc2F)c1NS(=O)(=O)C1(CC(O)CO)CC1 (stereo unspecified)"
  Experimental target: "SCC-4"
  Result: "5 µM"
- Compound: "CC(=O)O[C@@H]1[C@@H](OC(C)=O)[C@@H](O)[C@H](Oc2c(-c3ccc(O)cc3)oc3cc(O)cc(O)c3c2=O)O[C@H]1C"
  Experimental target: "SCC-4"
  Result: "> 10 µM"
- Compound: "C=CCc1cccc(/C=N/NC(=O)CN2CCN(Cc3ccccc3)CC2)c1O"
  Experimental target: "SCC-4"
  Result: "> 2.56 µM"

// next item, IC50 requested
Data request: Answer with the recorded IC50 for the compound listed here: CN(C)C/C=C/C(=O)Nc1cc2c(Nc3ccc(F)c(Cl)c3)ncnc2cc1O[C@H]1CCOC1
Data returned: > 0.5 µM
